Assay: protein stability index of a GFP-peptide fusion (GPS, HEK-293T) (PSI 1-6); higher = more stable;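 further: 24-mer peptide tiles fused after GFP, lentivirally expressed, FACS-sorted into six equal bins by GFP/DsRed ratio, decoded by Illumina sequencing, PSI is the read-weighted mean bin number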
Settings: treatment: MLN4924 1 uM, 8 h; c terminus: a fixed tail appended
The following sequences are shown together with reported protein stability index values.
property: protein stability index

1) EFSIDNYPTDNTKVMIFKSSYSLS [MIA2]	2.48
2) TEFRKGAQSLPGPCAAAREGRLER [IRX6]	4.62
3) KANSPLKGHERTVQYLQHLGTENL [VPS39]	3.71
4) PESSALQPPPQSSEGLVGALMHVM [WAS]	3.58
5) SPRSTSVTTTSSASVTTTSNASGR [KRT13]	5.32
6) RRVDFCKDPSAIGKKQVPCFASML [CASP6]	2.54
7) LYVVIPTRRSTAEAFQIVLSHLLG [SPNS1]	2.71
8) CVDRQEVAEITKQLPPVVPVSKPG [TCAP]	4.63
9) HLTKKDLRVHLKMVDSFHRTSLQY [PPFIA4]	2.11
10) FIDKEDLKDTYASLGKTNVKDDEL [MYL5]	4.92
11) ILFVNSEFETLYNEHKSCEEKSVK [CLK3]	3.05
12) DESLTDLEAQPYEAVFLRAVKLYN [P3H4]	2.71
13) DQKERCIIVRTTNKKYYKKFSIPD [DPCD]	3.06
14) LLNPNLKDTVICAMKITQEPQGLG [SPACA3]	2.51
15) RYIVNGSHEANKLQDMLDGFIKKF [EIF5]	2.17
16) IPKSSDPEMRWNKGTILKASVDYI [TFE3]	3.03
17) QPILQIDNARLAADDFRTKYEHEL [KRT16]	4.31
18) EEPENGEPTAAATARRSKRERREE [PWWP2B]	5.8
19) ISPGRVYEYTSCTTFSTTSGYMEG [FBXO3]	2.69
20) GLGPTSEPFPSSDDSPRSALAAAT [SPAG8]	5.18
21) LLRTFDAGEFTGWEKVGSGGFGQV [RIPK4]	2.53
22) EVLLASLANPVLESTPVGTVVGLF [PCDHGC5]	2.33
23) ISLEERRAQLPKYQRNLPRPGQAP [ZNF207]	3.67
24) SSRSTVPTPAKRRSSALWSEMLDI [NET1]	2.96
25) GKSFRQRPSLVIHLRIHTGEKPYK [ZNF449]	2.61
26) EKTFWKEEKSFWEMEKSFREEEKT [CCDC70]	4.82

###

Test: protein stability index of a GFP-peptide fusion (GPS, HEK-293T) (PSI 1-6); higher = more stable
Conditions: treatment: DMSO; c terminus: a fixed tail appended
property: protein stability index

1. SNTGSESNSATVEEPPTDPIPEDE [SMARCE1]	5.48
2. AVNLIESGACGAFVHGLEDEMYEV [INTS4]	3.41
3. KKKEGGALRAQRASSNVFSNFEQT [MYL5]	4.42
4. SDLNTNNLLFKPPVESHIQKNKKI [KMT2E]	4.31
5. MGERKGVNKYYPPDFNPEKHGSLN [YJU2B]	4.11
6. DLMGVLTKGVREVERALQLPREPG [FEM1A]	2.82

###

Below, each of the sequences is paired with its reported protein stability index value.
Assay: protein stability index of a GFP-peptide fusion (GPS, HEK-293T) (PSI 1-6); higher = more stable
Settings: treatment: DMSO; c terminus: a fixed tail appended
property: protein stability index

1) RITQYLDAGGIPRTAQSEETRVWH [CAMK2A]	3.03
2) YRTVVRPTYKVMYKIVTAREWRCC [EMID1]	2.71
3) LPVVNAVGEIVGIITRHNLTYEFL [CLCN6]	3.07
4) PAQRITLAEALLHPFFAGLTPEER [CLK3]	3
5) SKVIEILDSQTEIYQYVQNSMAPH [DLC1]	2.6
6) RATNHLDQVPSMQDGSESFFFRHG [SPAG8]	3.51
7) LTDFYPVRRSSRKSKAELQSEERK [KMT5A]	3.04
8) RALKFRERDALEAVFRFWAGGEKG [DNAAF3]	2.32
9) TVYKARDPHSGHFVALKSVRVPNG [CDK4]	2.31
10) WFSDPSDTALLNLLPMLDALRFTA [CTDNEP1]	2.73
11) NALSKSSAPPITPECRQVLKTSRK [CHGB]	4.68
12) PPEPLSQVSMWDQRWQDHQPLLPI [APBB1IP]	2.76
13) MNNAVRNLQELLELDSSSSLCVLV [CEP70]	2.36
14) PQGLFRGGKSGELEQEEERLSKEW [CHGA]	5.19
15) AEGARPLRENVPRVIMIVTDGRPQ [MATN2]	2.83

###

Assay: protein stability index of a GFP-peptide fusion (GPS, HEK-293T) (PSI 1-6); higher = more stable
Conditions: treatment: MLN4924 1 uM, 8 h; c terminus: a fixed tail appended
property: protein stability index

1) RKDPYGKPVDMWACGVILYILLVG [CAMK2D]	3.04
2) AAVAQKPRSHFTTPAPMSSAWKTV [MYBL2]	2.97
3) QAGGEGAGGELGISLNMCLLGALV [PBXIP1]	2.23
4) FFLKHPDKDVRLLVACCLADIFRI [PDS5B]	2.75
5) SQPLDREATSHYIIELLASDAGSP [PCDHGC5]	3.52
6) LPDPREACGSSSYVASIVDGGESR [RBMY1A1]	4.64
7) ALQNKDTYEPFCKVPVITSSKEEQ [KCTD10]	4.5
8) TVTSVSCCHGNTLLAVRSVTDEPV [NEK8]	3.14
9) QLSPSPTPASQSPKKPPAKDPLAD [SNAP91]	5.53
10) GWAKHIPGFSTLSLADQMSLLQSA [ESRRG]	2.5

###

In this section we review reported protein stability index values for a set of sequences.
Test: protein stability index of a GFP-peptide fusion (GPS, HEK-293T) (PSI 1-6); higher = more stable
Details: treatment: DMSO; c terminus: a fixed tail appended
property: protein stability index

1. PFLFFGHFWQLFNALTLFNLAQDP [TMEM120A]	3.35
2. IFSIVFVFFVCFVPYHIARIPYTK [P2RY14]	3.1
3. EEPENGEPTAAATARRSKRERREE [PWWP2B]	5.63
4. YSHLGGIDYKTTTILLDGQRVKLK [RAB40A]	3.12
5. PNTLYEGGYFKAHIKFPIDYPYSP [UBE2R2]	2.26
6. RYHRFISFALYLAGFCMFVLSLVK [CDS1]	2.02
7. TDIDIDTLCAVLERDTLSIRESRL [BTBD1]	2.84
8. QLLSERFGRGSRTVDLELELQIEL [ARFIP2]	2.58
9. DSEEPVSTHQEAENEKDRADQTVL [CHGB]	5.29
10. HTRSWAVLKLLLLLLLFGVAGGLV [LRRC59]	2.56
11. GDSGFLVVRGGEVVHRSDEQQHYF [PPTC7]	3.75
12. QRELEIPEQQVDMHDMLLEELAPV [ZNF449]	5.22
13. IYTHFTCATDTKNVQFVFDAVTDV [GNAI1]	2.55
14. FVATFLRYAVVLNATWLVNSAAHL [SCD]	3.31
15. TPATTTEPPKPTFPAYTQSTASTT [ZNF207]	4.99
16. PDTELKRYFGARAILGEQRPRQRQ [TCF25]	4.25
17. TKQWTLIAKHLKGRLGKQCRERWH [MYBL2]	2.51
18. EGYTWRVAQLEDRRSTTDLRGTQF [ZSWIM9]	3.37
19. SDTEAQCEVMQEIVDQVLEEDFDS [INTS3]	5.56
20. DGSVLLIPRTMADQQARRQERKPK [NFE2L1]	3.5

###

Assay: protein stability index of a GFP-peptide fusion (GPS, HEK-293T) (PSI 1-6); higher = more stable
Settings: treatment: DMSO; c terminus: a fixed tail appended
// values below are reported protein stability index
property: protein stability index

1. QPLADEGPPGRSIGGAAPSLGALD [SERTAD1]	5.19
2. WTFYPRFSSNIHTYHVGKQCFFNG [SPATS1]	2.74
3. KLDTKYPYVCHAELNAIMNKNSTD [DCTD]	3.52
4. SESETSTMAAKKNRQSSDKQNGRV [C18orf25]	5.35
5. ALVVPKGNTAVSVLMLLVALLFTG [SCAMP3]	2.98
6. QRITKQLEKWMQKNVEENLYSSSL [GLT8D2]	2.89
7. TVPGQALACGSNRFNKLGLDHLSL [NEK8]	2.44
8. KLPATMPEPVYFHCAAVTPAGCMY [KLHDC10]	2.27
9. GRHAQTVETLLRHGAHINLQSLKF [RIPK4]	2.34
10. MLPGRTDNAVKNHWNSTIKRKVDT [MYBL2]	3.61
11. ERPERRSGPPASYCAKLCEPQWFY [C8orf76]	2.46
12. PLMKPHRPWADTCSSSGKDGNLCL [HESX1]	2.74
13. GTPGPFTKEGGMLAYYEVCSWKGA [CHIT1]	2.47
14. NSAAATSPKGTLPPAALESSDSAN [CAMK2B]	5.39
15. DSAQMQNGGPSTPPASPPADGSPP [ANKRD40]	5.24
16. TDGDHNVYPRPPEPREFSSRNFGV [ZC2HC1C]	3.89
17. RRPVNVPLDMFSEEIKFYELGEEA [KCNA1]	3.62
18. GQFVMKTRRTLKGHGNKVLCMDWC [GNB5]	2.16
19. MLQRAIAYQHSGHLESKDINQEEL [C10orf62]	3.96
